- TEST_SUMMARY: Mouse plasma PK after IV administration
- Assay type: in vivo
- ASSAY_SETUP: male, C57 Bl/6J, mouse, plasma, iv, 1 mg/kg, IV administration, read-out: half-life (T1/2) (converted)
READOUT_KIND: half-life (h)
Your answer is read as h, so omit the unit and give the number.

Note to self: half-life recorded for `CN1CCC2(CC1)CN(c1ccc(C(=O)Nc3cc(-c4cccs4)ccc3N)cn1)C(=O)O2` was 1.2

* * *

- TEST_SUMMARY: Mouse plasma PK after oral administration
- Format: in vivo
- ASSAY_SETUP: male, C57 Bl/6J, mouse, plasma, po, 7 mg/kg, mouse plasma, oral dosing; read-out: half-life (converted)
READOUT_KIND: half-life (h)
Hi! Could you send only the number? It should be in h, unit omitted.

Recorded half-life (compound `CN1CCC2(CC1)CN(c1ccc(C(=O)Nc3cc(-c4cccs4)ccc3N)cn1)C(=O)O2` ): 1.9

* * *

- TEST_SUMMARY: Mouse plasma PK after oral administration
- Type: in vivo
- ASSAY_SETUP: male, C57 Bl/6J, 7 mg/kg; mouse plasma, oral dosing; read-out: AUC (area under curve)
READOUT_KIND: AUC

AUC in this record for CN1CCC2(CC1)CN(c1ccc(C(=O)Nc3cc(-c4cccs4)ccc3N)cn1)C(=O)O2 [Example 4] : ~16 µM·h

* * *

- TEST_SUMMARY: Mouse plasma PK after IV administration
- Type: in vivo
- ASSAY_SETUP: male, C57 Bl/6J, 1 mg/kg IV, individual mice
READOUT_KIND: Tmax (min)
Write it as a number; the unit min goes unstated.

The value of Tmax measured for the compound `CN1CCC2(CC1)CN(c1ccc(C(=O)Nc3cc(-c4cccs4)ccc3N)cn1)C(=O)O2` turned out to be 4.8

* * *

Recorded IC50 for the following compounds
- MEASURED_ON: Complex of human HDAC3 and human NCOR2 (Homo sapiens)
- Construct: full-length with a C-terminal His tag, MW=49.7 kDa; His tag (C); made in house; host or cells: baculovirus expression system
- Sequence (O15379 whole entry): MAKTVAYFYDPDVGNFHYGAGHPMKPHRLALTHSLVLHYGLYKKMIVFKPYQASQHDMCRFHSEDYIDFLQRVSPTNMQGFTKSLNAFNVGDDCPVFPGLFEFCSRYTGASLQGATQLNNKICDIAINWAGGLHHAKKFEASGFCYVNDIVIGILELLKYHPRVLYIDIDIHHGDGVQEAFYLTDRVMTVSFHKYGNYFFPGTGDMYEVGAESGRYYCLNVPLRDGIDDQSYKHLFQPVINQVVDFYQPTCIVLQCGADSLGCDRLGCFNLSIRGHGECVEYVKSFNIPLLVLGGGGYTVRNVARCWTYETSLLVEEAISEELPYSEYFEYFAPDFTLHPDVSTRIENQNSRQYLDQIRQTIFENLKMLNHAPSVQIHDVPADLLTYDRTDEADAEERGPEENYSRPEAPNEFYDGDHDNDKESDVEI
- Sequence (Q9Y618 395-489 partner limits assumed): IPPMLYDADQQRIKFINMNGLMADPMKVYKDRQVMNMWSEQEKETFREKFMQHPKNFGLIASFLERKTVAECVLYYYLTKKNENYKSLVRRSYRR
- TEST_SUMMARY: Biochemical HDAC enzymatic assay, HDAC3
- ASSAY_SETUP: Table 1; incubation time 10 min

Answered examples (2):
Nc1cc(F)ccc1NC(=O)c1ccc(CN2C(=O)CCCC23CNC3)cc1 : 1.9 µM
Nc1ccc(-c2cccs2)cc1NC(=O)c1ccc(CN2C(=O)CCCC23CNC3)cc1 : 13 µM

The reported value for `Nc1ccc(-c2ccc(F)cc2)cc1NC(=O)c1ccc(N2CC3(CCOCC3)OC2=O)nc1` in terms of IC50 is > 20 µM

Per the records, this compound ( `CN1CCC2(CC1)CN(c1ccc(C(=O)Nc3cc(-c4cccs4)ccc3N)cn1)C(=O)O2` ) has IC50 equal to 17.4 µM

Entry `Nc1ccc(-c2cccs2)cc1NC(=O)c1ccc(CN2C(=O)CCC23CCNCC3)cc1` ; IC50 = > 20 µM

Record summary for `Nc1ccc(-c2cccs2)cc1NC(=O)c1ccc(N2CC3(CCNCC3)CCC2=O)nc1` : reported IC50 = > 20 µM

* * *

# collection of IC50 values tested on Human HDAC10 (Homo sapiens, UniProt Q969S8)
# Sequence (Q969S8 1-481): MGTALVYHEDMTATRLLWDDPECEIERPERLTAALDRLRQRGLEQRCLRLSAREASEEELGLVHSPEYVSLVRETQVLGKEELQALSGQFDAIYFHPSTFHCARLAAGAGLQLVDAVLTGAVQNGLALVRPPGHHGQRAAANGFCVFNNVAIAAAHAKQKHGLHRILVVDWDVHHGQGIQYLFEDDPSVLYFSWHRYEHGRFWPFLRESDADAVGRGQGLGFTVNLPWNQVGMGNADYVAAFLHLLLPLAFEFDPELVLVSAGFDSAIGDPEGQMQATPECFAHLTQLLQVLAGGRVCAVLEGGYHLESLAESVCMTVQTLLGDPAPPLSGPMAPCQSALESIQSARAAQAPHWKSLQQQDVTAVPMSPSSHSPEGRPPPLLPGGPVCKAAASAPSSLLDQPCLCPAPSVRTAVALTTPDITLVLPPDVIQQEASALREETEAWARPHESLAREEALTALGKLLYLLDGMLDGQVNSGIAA

O=C(NO)c1ccc(CN2C(=O)c3ccccc3C23CCN(C2CC2)CC3)cc1 [Compound Example 12] : > 10 µM

IC50 on Human HDAC10 (Homo sapiens, UniProt Q969S8) for CN(C)C(=O)N1CCC2(CC1)c1ccccc1C(=O)N2Cc1ccc(C(=O)NO)cc1 [Compound Example 11] is > 10 µM

Source: patent US11155550B2
